MEASUREMENT_TARGET: CGRP1 receptor (CRLR/RAMP1 complex) of human neuroblastoma SK-N-MC cells (human, UniProt Q16602 23-461; O60894 27-148)
Sequence (Q16602 23-461, chain 1 of 2): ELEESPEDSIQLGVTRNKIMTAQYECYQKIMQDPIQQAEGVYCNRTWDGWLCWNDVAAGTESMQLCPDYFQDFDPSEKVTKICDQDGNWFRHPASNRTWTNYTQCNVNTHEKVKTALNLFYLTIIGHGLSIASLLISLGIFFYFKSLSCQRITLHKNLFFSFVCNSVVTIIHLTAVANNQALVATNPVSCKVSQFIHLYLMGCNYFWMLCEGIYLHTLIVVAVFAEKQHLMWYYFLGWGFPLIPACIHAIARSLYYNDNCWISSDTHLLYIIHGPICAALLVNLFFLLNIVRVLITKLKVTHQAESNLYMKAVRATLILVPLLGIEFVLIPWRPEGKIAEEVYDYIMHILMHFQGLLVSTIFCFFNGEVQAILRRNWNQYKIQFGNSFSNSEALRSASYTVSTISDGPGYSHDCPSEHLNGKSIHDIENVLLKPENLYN
Sequence (O60894 27-148, chain 2 of 2): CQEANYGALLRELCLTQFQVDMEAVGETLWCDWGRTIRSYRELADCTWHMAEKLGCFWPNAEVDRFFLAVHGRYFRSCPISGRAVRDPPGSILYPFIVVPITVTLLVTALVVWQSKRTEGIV
ASSAY_SUMMARY: cell-based or functional assay
Bridge positions count the residues as written; N and C are the ends. Square brackets hold non-standard residues; d marks the D form. hArg = N=C(N)NCCCC[C@H](N)C(=O)O
Criterion: Peptide IC50 strictly less than 1 nM. Met: satisfied. Not met: not satisfied.

WVTHXLAGLLSXSGGVVXKNFVPTDVGPFAF (Ac-WVTH[hCit]LAGLLS[hCit]SGGVV[hArg]KNFVPTDVGPFAF-NH2) [SEQ ID NO 886] :: not satisfied
WVTHXLAGLLSXSGGVVXKNFVXTDVGPXAF (Ac-WVTH[Cit]LAGLLS[Cit]SGGVV[hArg]KNFV[Oic]TDVGP[Bip]AF-NH2) [SEQ ID NO 950] :: not satisfied
Ac-WVTHRLAGLLSRSGGVVRKNFVPTDVGSKAF-NH2 [SEQ ID NO 915] :: not satisfied
Ac-WVEHRLKGLLS[hArg]SGGVV[hArg]KNFVPTDVGPFAF-NH2 (lactam 3-7) [SEQ ID NO 905] :: not satisfied
Ac-WVEHRLKGELSRKGGVVRKNFVPTDVGPFAF-NH2 (lactam 9-13, 3-7) [SEQ ID NO 892] :: not satisfied
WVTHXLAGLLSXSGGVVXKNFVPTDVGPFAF (Ac-WVTH[Cit]LAGLLS[Cit]SGGVV[Cit]KNFVPTDVGPFAF-NH2) [SEQ ID NO 937] :: not satisfied
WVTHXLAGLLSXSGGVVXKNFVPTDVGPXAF (Ac-WVTH[hArg]LAGLLS[Cit]SGGVV[hArg]KNFVPTDVGP[2-Nal]AF-NH2) [SEQ ID NO 926] :: satisfied
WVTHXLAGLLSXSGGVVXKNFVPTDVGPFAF (Ac-WVTH[Cit]LAGLLS[hArg]SGGVV[Guf]KNFVPTDVGPFAF-NH2) [SEQ ID NO 935] :: not satisfied
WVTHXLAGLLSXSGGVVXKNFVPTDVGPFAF (Ac-WVTH[Cit]LAGLLS[Cit]SGGVV[hArg]KNFVPTDVGPFAF-NH2) [SEQ ID NO 871] :: satisfied
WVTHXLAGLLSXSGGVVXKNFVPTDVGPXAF (Ac-WVTH[Cit]LAGLLS[Cit]SGGVV[hArg]KNFVPTDVGP[Tic]AF-NH2) [SEQ ID NO 947] :: not satisfied
